# measured.target: human O-GlcNAcase (Homo sapiens)
# measurement.description: Determination of KI values for inhibition of O-GlcNAcase activity (fluorogenic 4-methylumbelliferyl GlcNAc substrate)
# Format: biochemical

[
  {
    "compound": "CNC1=N[C@@H]2[C@@H](O)[C@H](O)C(C(C)=O)O[C@@H]2S1 (stereo partly drawn) [Example 38]",
    "u": "nM",
    "Ki": 79
  },
  {
    "compound": "CCNC1=N[C@@H]2[C@@H](O)[C@H](O)[C@@H](C(=O)N(C)C)O[C@@H]2S1 [Example 51]",
    "u": "nM",
    "Ki": 1880
  },
  {
    "compound": "CCNC1=N[C@@H]2[C@@H](O)[C@H](O)[C@@H](CCl)O[C@@H]2S1 [Example 54]",
    "u": "nM",
    "Ki": 2.3
  },
  {
    "compound": "CCNC1=N[C@@H]2[C@@H](O)[C@H](O)[C@@H](C(=O)N(C)OC)O[C@@H]2S1 [Example 47]",
    "u": "nM",
    "Ki": 3320
  },
  {
    "compound": "CCNC1=N[C@@H]2[C@@H](O)[C@H](O)[C@@H](C(=O)OC)O[C@@H]2S1 [Example 53]",
    "u": "nM",
    "Ki": 480
  },
  {
    "compound": "CCNC1=N[C@@H]2[C@@H](O)[C@H](O)[C@@H](C(=O)O)O[C@@H]2S1 [Example 52]",
    "u": "nM",
    "Ki": 27
  }
]

* * *

# measured.target: UniProtKB O60502
# measurement.description: Determination of KI values for inhibition of O-GlcNAcase activity (fluorogenic 4-methylumbelliferyl GlcNAc substrate)
# Type: biochemical
# condition.set: purified human O-GlcNAcase 0.7 nM, 2 mM substrate, pH 7.0, room temperature; Cheng-Prusoff; read-out: Ki
# Procedure: Assay for Determination of […] for Inhibition of O-GlcNAcase Activity Experimental procedure for kinetic analyses: Enzymatic reactions were carried out in a reaction containing 50 mM NaH2PO4, 100 mM NaCl and 0.1% BSA (pH 7.0) using 2 mM 4-Methylumbelliferyl N-acetyl-β-D-glucosaminide dihydrate (Sigma M2133) dissolved in ddH2O, as a substrate. […] The values for a four parameter logistic curve fit of the data were determined.
recorded.endpoint: Ki (nM)

[
  {
    "compound": "CNC1=N[C@@H]2[C@@H](O)[C@H](O)[C@@H](CSc3ccccc3)O[C@@H]2S1",
    "result.value": 1.9
  },
  {
    "compound": "CNC1=N[C@@H]2[C@@H](O)[C@H](O)[C@@H](CCCc3ccc(OC)cc3)O[C@@H]2S1",
    "result.value": 11.1
  },
  {
    "compound": "CN(C)C1=N[C@@H]2[C@@H](O)[C@H](O)[C@@H]([C@@](O)(CCc3ccccc3)C(F)(F)F)O[C@@H]2S1 (stereo in doubt)",
    "result.value": 316
  },
  {
    "compound": "CCN(CC)C(=O)[C@H]1O[C@@H]2SC(NC)=N[C@@H]2[C@@H](O)[C@@H]1O",
    "result.value": 2500
  },
  {
    "compound": "CNC1=N[C@@H]2[C@@H](O)[C@H](O)[C@@H](CC#N)O[C@@H]2S1",
    "result.value": 1.08
  },
  {
    "compound": "CNC1=N[C@@H]2[C@@H](O)[C@H](O)[C@@H](C(=O)NC(C)C)O[C@@H]2S1",
    "result.value": 588
  },
  {
    "compound": "CCNC(=O)[C@H]1O[C@@H]2SC(NCC)=N[C@@H]2[C@@H](O)[C@@H]1O",
    "result.value": 2880
  },
  {
    "compound": "CCNC1=N[C@@H]2[C@@H](O)[C@H](O)[C@@H](C(=O)NC3CC3)O[C@@H]2S1",
    "result.value": 1960
  },
  {
    "compound": "CCNC(=O)[C@H]1O[C@@H]2SC(NC)=N[C@@H]2[C@@H](O)[C@@H]1O",
    "result.value": 1430
  },
  {
    "compound": "C#C[C@H]1O[C@@H]2SC(NCC)=N[C@@H]2[C@@H](O)[C@@H]1O",
    "result.value": 837
  },
  {
    "compound": "CNCC[C@H]1O[C@@H]2SC(NC)=N[C@@H]2[C@@H](O)[C@@H]1O",
    "result.value": 8.4
  },
  {
    "compound": "CN(C)C1=N[C@@H]2[C@@H](O)[C@H](O)[C@@H](CC#N)O[C@@H]2S1",
    "result.value": 5.9
  },
  {
    "compound": "CNC1=N[C@@H]2[C@@H](O)[C@H](O)[C@@H]([C@H](CCc3ccc(OC)cc3)C(F)(F)F)O[C@@H]2S1",
    "result.value": 1.1
  },
  {
    "compound": "CNC1=N[C@@H]2[C@@H](O)[C@H](O)[C@@H](CSCc3ccccc3)O[C@@H]2S1",
    "result.value": 4.1
  },
  {
    "compound": "CNC1=N[C@@H]2[C@@H](O)[C@H](O)[C@@H](CCC(=O)OC)O[C@@H]2S1",
    "result.value": 22
  },
  {
    "compound": "COc1ccc(C/C=C(\\[C@H]2O[C@@H]3SC(N(C)C)=N[C@@H]3[C@@H](O)[C@@H]2O)C(F)(F)F)cc1 (single isomer, unassigned)",
    "result.value": 9.5
  }
]

* * *

Measured Ki, listed per entry for reference.
# measured.target: UniProt O60502
# measurement.description: Determination of KI values for inhibition of O-GlcNAcase activity (fluorogenic 4-methylumbelliferyl GlcNAc substrate)
# Assay type: biochemical
# condition.set: purified human O-GlcNAcase 0.7 nM, 2 mM substrate, pH 7.0, room temperature; Cheng-Prusoff; read-out: Ki

[
  {
    "compound": "COc1ccc(C/C=C(/[C@H]2O[C@@H]3SC(N(C)C)=N[C@@H]3[C@@H](O)[C@@H]2O)C(F)(F)F)cc1 (single isomer, unassigned) [Example 4]",
    "Ki": "16.2 nM"
  },
  {
    "compound": "CN(C)C(=O)CC[C@H]1O[C@@H]2SC(N(C)C)=N[C@@H]2[C@@H](O)[C@@H]1O [Example 33]",
    "Ki": "311 nM"
  },
  {
    "compound": "CNC1=N[C@@H]2[C@@H](O)[C@H](O)[C@@H]([C@@H](O)CCc3ccc(OC)cc3)O[C@@H]2S1 (single isomer, unassigned) [Example 7]",
    "Ki": "1.2 nM"
  },
  {
    "compound": "CNC1=N[C@@H]2[C@@H](O)[C@H](O)[C@@H](CCN)O[C@@H]2S1 [Example 40]",
    "Ki": "24 nM"
  }
]

* * *

# measurement.description: Determination of apparent permeability (Papp), bi-directional transport in LLC-PK1 cells
# Type: in vitro ADME
# condition.set: pig, t=3 h, average of A to B and B to A

[
  {
    "input.smiles": "CNC1=N[C@@H]2[C@@H](O)[C@H](O)[C@@H](CS(=O)(=O)Cc3ccccc3)O[C@@H]2S1",
    "u": "×10⁻⁶ cm/s",
    "Papp at 3 h, 1 μM": 1.3
  },
  {
    "input.smiles": "CNC1=N[C@@H]2[C@@H](O)[C@H](O)[C@@H](CCCc3ccc(OC)cc3)O[C@@H]2S1",
    "u": "×10⁻⁶ cm/s",
    "Papp at 3 h, 1 μM": 25
  }
]

* * *

# measured.target: human O-GlcNAcase (Homo sapiens, UniProt O60502)
# Sequence (O60502 whole entry): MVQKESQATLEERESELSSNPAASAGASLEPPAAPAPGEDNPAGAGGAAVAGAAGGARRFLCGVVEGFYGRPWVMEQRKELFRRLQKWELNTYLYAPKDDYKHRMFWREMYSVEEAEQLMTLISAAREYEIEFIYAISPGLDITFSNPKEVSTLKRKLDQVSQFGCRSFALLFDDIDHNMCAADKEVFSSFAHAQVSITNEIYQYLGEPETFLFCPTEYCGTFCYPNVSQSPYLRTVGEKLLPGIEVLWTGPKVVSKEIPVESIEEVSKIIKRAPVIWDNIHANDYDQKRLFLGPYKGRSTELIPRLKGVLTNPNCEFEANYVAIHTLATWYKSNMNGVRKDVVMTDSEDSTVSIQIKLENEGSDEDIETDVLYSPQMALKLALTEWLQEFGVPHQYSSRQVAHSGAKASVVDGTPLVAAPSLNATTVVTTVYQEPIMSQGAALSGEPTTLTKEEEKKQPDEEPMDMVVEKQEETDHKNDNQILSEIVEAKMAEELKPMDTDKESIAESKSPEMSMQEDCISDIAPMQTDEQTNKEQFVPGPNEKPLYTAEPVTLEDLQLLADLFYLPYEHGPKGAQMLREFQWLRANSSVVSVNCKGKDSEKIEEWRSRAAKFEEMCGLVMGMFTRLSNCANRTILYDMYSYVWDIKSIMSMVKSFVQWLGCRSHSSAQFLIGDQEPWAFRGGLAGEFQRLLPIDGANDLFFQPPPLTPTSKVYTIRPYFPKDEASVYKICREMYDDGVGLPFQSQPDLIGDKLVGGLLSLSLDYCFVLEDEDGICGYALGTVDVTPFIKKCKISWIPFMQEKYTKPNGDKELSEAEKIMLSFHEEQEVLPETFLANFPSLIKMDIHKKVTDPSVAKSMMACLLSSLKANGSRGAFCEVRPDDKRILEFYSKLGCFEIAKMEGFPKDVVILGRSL
# measurement.description: Determination of KI values for inhibition of O-GlcNAcase activity (fluorogenic 4-methylumbelliferyl GlcNAc substrate)
# Assay type: biochemical
# condition.set: purified human O-GlcNAcase 0.7 nM, 2 mM substrate, pH 7.0, room temperature; Cheng-Prusoff; read-out: Ki
# Protocol: Assay for Determination of […] for Inhibition of O-GlcNAcase Activity Experimental procedure for kinetic analyses: Enzymatic reactions were carried out in a reaction containing 50 mM NaH2PO4, 100 mM NaCl and 0.1% BSA (pH 7.0) using 2 mM 4-Methylumbelliferyl N-acetyl-β-D-glucosaminide dihydrate (Sigma M2133) dissolved in ddH2O, as a substrate. […] The values for a four parameter logistic curve fit of the data were determined.
recorded.endpoint: Ki

[
  {
    "molecule": "CN(C)C1=N[C@@H]2[C@@H](O)[C@H](O)[C@@H]([C@@](O)(Cc3ccccc3)C(F)(F)F)O[C@@H]2S1 [Example 26]",
    "recorded.endpoint": "Ki",
    "result.value": "66 nM"
  },
  {
    "molecule": "CNC1=N[C@@H]2[C@@H](O)[C@H](O)[C@@H](CS(=O)(=O)c3ccccc3)O[C@@H]2S1 [Example 60]",
    "recorded.endpoint": "Ki",
    "result.value": "75 nM"
  },
  {
    "molecule": "CCOC(=O)/C=C/[C@H]1O[C@@H]2SC(NC)=N[C@@H]2[C@@H](O)[C@@H]1O [Example 5]",
    "recorded.endpoint": "Ki",
    "result.value": "72 nM"
  },
  {
    "molecule": "CN(C)C1=N[C@@H]2[C@@H](O)[C@H](O)[C@@H]([C@@H](O)Cc3ccccc3)O[C@@H]2S1 [Example 21]",
    "recorded.endpoint": "Ki",
    "result.value": "25.6 nM"
  },
  {
    "molecule": "COc1ccc(CC[C@@H]([C@H]2O[C@@H]3SC(N(C)C)=N[C@@H]3[C@@H](O)[C@@H]2O)C(F)(F)F)cc1 (single isomer, unassigned) [Example 2]",
    "recorded.endpoint": "Ki",
    "result.value": "1.6 nM"
  },
  {
    "molecule": "CNC1=N[C@@H]2[C@@H](O)[C@H](O)[C@@H](CS(=O)(=O)Cc3ccccc3)O[C@@H]2S1 [Example 62]",
    "recorded.endpoint": "Ki",
    "result.value": "352 nM"
  },
  {
    "molecule": "CCNC1=N[C@@H]2[C@@H](O)[C@H](O)[C@@H](C#N)O[C@@H]2S1 [Example 58]",
    "recorded.endpoint": "Ki",
    "result.value": "601 nM"
  }
]
